# Test system: NCI/ADR-RES ovarian
# Assay overview: NCI-60 one-dose screen, 48 h
# Assay setup: 10 µM
The panel holds about 83,000 compounds, 20% with a hit somewhere; the sample as a whole holds those more often. Calls of active or inactive are those of the source. How the source made its calls: active means growth percent below 10; inactive means the rest.
A correct response names exactly one class from active, inactive

Worked set:
COc1cc(C(=O)N2CCN(c3ccccc3OC)CC2)c(N)cc1OCCCN1CCN(c2ccccc2OC)CC1    inactive
COc1ccc(-c2cc(/C=C3\C(=O)Nc4ccc(Cl)cc43)[nH]n2)cc1OC    inactive

Query string: For this molecule, state the assay outcome: CCCCCCN(CCCCCC)CC(O)c1ccc2c3c(cccc13)CC2 (centres undefined)
Result string: inactive

Query string: For this molecule, state the assay outcome: c1ccc2c(c1)oc1c3c(ccc12)NCCC3
Result string: inactive

Query string: For this molecule, state the assay outcome: COc1cc(CNc2ccccc2C(=O)N2CCN(C(=O)c3cc(-c4cc(OC)c(OC)c(OC)c4)n4nc(-c5ccccc5)cc4n3)CC2)cc(OC)c1OC
Result string: inactive

Query string: For this molecule, state the assay outcome: COc1ccc(N2C(=O)C3c4[nH]c5ccc(OCc6ccccc6)cc5c4C4CCC(C(C)C)CC4C3C2=O)cc1 (centres undefined)
Result string: inactive

Query string: For this molecule, state the assay outcome: CC(C)(C)c1cc(Br)cc(C(C)(C)C)c1O
Result string: inactive

Query string: For this molecule, state the assay outcome: COc1ccc2c(c1)-c1c(c3cc(OC)ccc3n(CCN(C)C)c1=O)C2=O
Result string: active

Query string: For this molecule, state the assay outcome: Oc1[nH]c2ccc(Cl)cc2c1/C=c1/ccc2c(c1)N=C(c1cc(F)cc(F)c1)N=2
Result string: inactive
